ASSAY TEXT: Rat oral bioavailability assay
Assay type: in vivo
ASSAY CONTEXT: plasma, Sprague-Dawley rats, IV 1 mg/kg, PO 10 mg/kg, read-out: oral bioavailability (% F)
Description: Rat Oral Bioavailability Assay Administer the test compound to Sprague-Dawley rats IV at 1 mg/kg (using vehicles of either: 20% CAPTISOL® in 25 mM sodium phosphate buffer, pH2 quantum satis; or 25% DMA, 15% EtOH, 10% propylene glycol, 25% 2-pyrrolidone, and 25% purified water) and PO at 10 mg/kg (using a vehicle of 1% hydroxyethyl cellulose, 0.25% polysorbate 80, 0.05% Antifoam 1510-US, and purified water quantum satis). […]
MEASURE: bioavailability

Q. Using known records, supply bioavailability for Oc1ccc2c3c(cnc2c1)-c1ccc(C(F)(F)F)cc1OC3c1ccc(OCCN2CC(CF)C2)cc1 (single isomer, unassigned; isomer 2)
A. ~50%

Attribution: patent US11117902B2
